Give half-life for every item shown.
Test: PK in systemic plasma of Wistar rats (after hepatic clearance) and liver extraction ratio
Conditions: male, Wistar, rat, systemic plasma, po, 100 mg/kg
Numbers only, in h.

In [3]: df
Out[3]:
                                 smiles_str  value_reported
0  COc1ccc2cc3[n+](cc2c1OC)CCc1cc2c(cc1-3)OCO2             2.3

Identify half-life associated with the molecule COc1ccc2cc3[n+](cc2c1O)CCc1cc2c(cc1-3)OCO2
1.9

----------
Assay: PK in systemic plasma of GK rats after repeated oral administration (day 35)
Format: in vivo, rat
Details: male, GK, rat, in vivo, po, 33.3 mg/kg, Tmax
readout: Tmax
State the value with its unit after it.

Identify Tmax associated with the molecule CC(CCC1(O)OC2CC3C4CCC5CC(OC6OC(CO)C(O)C(O)C6OC6OC(CO)C(O)C(O)C6O)CCC5(C)C4CCC3(C)C2C1C)COC1OC(CO)C(O)C(O)C1O (stereo not shown) [TB-2, timosaponin B2]
2.1 h

----------
Test: Transport in Caco-2 cells
Assay type: in vitro ADME, human
Settings: human, with BBR 10 μM (co-incubated); Caco-2, TB-2 5 μM in presence of BBR (10 μM); n = 3
readout: Papp A→B at 120 min, 5 μM (×10⁻⁶ cm/s)
Give bare numbers, in ×10⁻⁶ cm/s.

Identify Papp A→B at 120 min, 5 μM associated with the molecule CC(CCC1(O)OC2CC3C4CCC5CC(OC6OC(CO)C(O)C(O)C6OC6OC(CO)C(O)C(O)C6O)CCC5(C)C4CCC3(C)C2C1C)COC1OC(CO)C(O)C(O)C1O (stereo not shown) [TB-2, timosaponin B2]
0.081

----------
Give Tmax for every item shown.
Test: Liver distribution in Wistar rats
Conditions: male, Wistar, rat, liver, po, 33.3 mg/kg, Tmax, Wistar rats, liver, single oral BBR+TB-2 (66.7+33.3 mg/kg), n = 5
State the value with its unit after it.

The following compounds have reported results that may help.
>>> print(df.to_string())
                                 smiles_str  value_reported
0  COc1cc2c(cc1O)CC[n+]1cc3c(OC)c(OC)ccc3cc1-2             2 h
1  COc1c(O)ccc2cc3[n+](cc12)CCc1cc2c(cc1-3)OCO2             2 h
2  COc1ccc2cc3[n+](cc2c1OC)CCc1cc2c(cc1-3)OCO2             2 h
3  COc1ccc2cc3[n+](cc2c1OC)CCc1cc(O)c(O)cc1-3             2 h
4  COc1ccc2cc3[n+](cc2c1O)CCc1cc2c(cc1-3)OCO2             6 h

For the next question, use this compound.
Identify Tmax associated with the compound COc1cc2c(cc1O)-c1cc3ccc(OC)c(OC)c3c[n+]1CC2
2 h

----------
Assay: Transport in Caco-2 cells
Assay type: in vitro ADME, human
Conditions: human, Caco-2, with BBR 10 μM (co-incubated), Caco-2, TB-2 5 μM in presence of BBR (10 μM); read-out: ERpermeability (efflux ratio)
readout: efflux ratio at 120 min, 5 μM

Identify efflux ratio at 120 min, 5 μM associated with the compound CC(CCC1(O)OC2CC3C4CCC5CC(OC6OC(CO)C(O)C(O)C6OC6OC(CO)C(O)C(O)C6O)CCC5(C)C4CCC3(C)C2C1C)COC1OC(CO)C(O)C(O)C1O (stereo not shown)
1

----------
Test: PK in systemic plasma of GK rats after repeated oral administration (day 35)
Type: in vivo, rat
Conditions: male, GK, rat, in vivo, po, 33.3 mg/kg, AUC
readout: AUC (ng·h/mL)
Numbers only, in ng·h/mL.

Identify AUC associated with the compound CC(CCC1(O)OC2CC3C4CCC5CC(OC6OC(CO)C(O)C(O)C6OC6OC(CO)C(O)C(O)C6O)CCC5(C)C4CCC3(C)C2C1C)COC1OC(CO)C(O)C(O)C1O (stereo not shown)
77.5

----------
Assay: PK in systemic plasma of GK rats after repeated oral administration (day 35)
Assay type: in vivo, rat
Details: male, GK, rat, plasma, po, 33.3 mg/kg, GK rats, systemic plasma, day 35, oral BBR+TB-2 (66.7+33.3 mg/kg); mean ± SE, n = 8
readout: Cmax (ng/mL)
Answers are plain numbers, in ng/mL.

                                   compound  readout  value_reported
0  COc1ccc2cc3[n+](cc2c1O)CCc1cc2c(cc1-3)OCO2 [M1, Berberrubine]     Cmax             6.6

For the next question, use this compound.
Identify Cmax associated with the compound COc1ccc2cc3[n+](cc2c1OC)CCc1cc2c(cc1-3)OCO2 [BBR, berberine]
42.2

----------
Experiment: in vivo
Conditions: male, Wistar, rat, po, 33.3 mg/kg
readout: Tmax (h)
One number for each entry, in h.

Identify Tmax associated with the compound CC(CCC1(O)OC2CC3C4CCC5CC(OC6OC(CO)C(O)C(O)C6OC6OC(CO)C(O)C(O)C6O)CCC5(C)C4CCC3(C)C2C1C)COC1OC(CO)C(O)C(O)C1O (stereo not shown)
1

----------
Experiment: PK in portal vein plasma of Wistar rats (before hepatic clearance)
Details: male, Wistar, rat, po, 66.7 mg/kg
readout: AUC (ng·h/mL)
Give bare numbers, in ng·h/mL.

In [3]: df
Out[3]:
                                   compound  readout  measurement_unit  value_reported
0  COc1ccc2cc3[n+](cc2c1OC)CCc1cc2c(cc1-3)OCO2 [BBR, berberine]      AUC           ng·h/mL             198

For the next question, use this compound.
Identify AUC associated with the compound COc1ccc2cc3[n+](cc2c1O)CCc1cc2c(cc1-3)OCO2 [M1, Berberrubine]
55.7

----------
Assay: PK in systemic plasma of GK rats after repeated oral administration (day 35)
Type: in vivo, rat
Conditions: male, GK, rat, plasma, po, 66.7 mg/kg, GK rats, systemic plasma, day 35, oral BBR 66.7 mg/kg alone; mean ± SE, n = 8; read-out: Tmax
readout: Tmax (h)
Answers are plain numbers, in h.

                                   compound  measurement_unit  value_reported
0  COc1ccc2cc3[n+](cc2c1O)CCc1cc2c(cc1-3)OCO2 [M1, Berberrubine]                 h            10.4

For the next question, use this compound.
Identify Tmax associated with the compound COc1ccc2cc3[n+](cc2c1OC)CCc1cc2c(cc1-3)OCO2 [BBR, berberine]
4.6

----------
Test: Liver distribution in Wistar rats
Settings: male, Wistar, rat, liver, po, 33.3 mg/kg, T1/2, Wistar rats, liver, single oral BBR+TB-2 (66.7+33.3 mg/kg), n = 5
readout: half-life (h)
One number for each entry, in h.

>>> df
                                 smiles_str    readout  value_reported
0  COc1ccc2cc3[n+](cc2c1O)CCc1cc2c(cc1-3)OCO2  half-life             4.2
1  COc1ccc2cc3[n+](cc2c1OC)CCc1cc2c(cc1-3)OCO2  half-life             6.9
2  COc1c(O)ccc2cc3[n+](cc12)CCc1cc2c(cc1-3)OCO2  half-life               5
3  COc1cc2c(cc1O)CC[n+]1cc3c(OC)c(OC)ccc3cc1-2  half-life               7
4  COc1cc2c(cc1O)-c1cc3ccc(OC)c(OC)c3c[n+]1CC2  half-life               6

For the next question, use this compound.
Identify half-life associated with the compound COc1ccc2cc3[n+](cc2c1OC)CCc1cc(O)c(O)cc1-3
6.2

----------
Give Cmax for every item shown.
Assay: Liver distribution in Wistar rats
Details: male, Wistar, rat, liver, po, 66.7 mg/kg, Cmax ± SE, Wistar rats, single oral BBR 66.7 mg/kg alone, n = 5

Below are some compounds; for each one, tell me its Cmax.
1. COc1cc2c(cc1O)-c1cc3ccc(OC)c(OC)c3c[n+]1CC2 [M5, columbamine]
2. COc1ccc2cc3[n+](cc2c1OC)CCc1cc2c(cc1-3)OCO2 [BBR, berberine]
3. COc1ccc2cc3[n+](cc2c1O)CCc1cc2c(cc1-3)OCO2 [M1, Berberrubine]
4. COc1cc2c(cc1O)CC[n+]1cc3c(OC)c(OC)ccc3cc1-2 [M4, jatrorrhizine]

1. 89.4 ng/g
2. 795 ng/g
3. 114 ng/g
4. 78.2 ng/g

Below are some compounds; for each one, tell me its Cmax.
1. COc1ccc2cc3[n+](cc2c1OC)CCc1cc(O)c(O)cc1-3 [M3, demethyleneberberine]
2. COc1c(O)ccc2cc3[n+](cc12)CCc1cc2c(cc1-3)OCO2 [M2, Thalifendine]

1. 38.8 ng/g
2. 766 ng/g
